This listing pairs molecules with measured MBC.
Test system: Trichophyton rubrum
measurementDescription: Antifungal activity against Trichophyton rubrum IFO 9185 assessed as growth inhibition at 37 degC for 48 hr
Assay type: functional
measurementParameters: IFO 9185, 48 h

[
  {
    "molecule": "COc1ccc(Cc2ccc(OC)c(C3SC4C(=NN(c5ccccc5)C4c4ccc(F)cc4)N3c3ccc(C)cc3)c2)cc1C1SC2C(=NN(c3ccccc3)C2c2ccc(F)cc2)N1c1ccc(C)cc1 (stereo unspecified)",
    "testedSystem": "Trichophyton rubrum",
    "MBC (µg/mL)": 50
  },
  {
    "molecule": "C[C@@H]1[C@H](O)[C@@H](C)/C=C/C=C/C=C/C=C/C=C/C=C/C=C/[C@H](O[C@@H]2O[C@H](C)[C@@H](O)[C@H](N)[C@@H]2O)C[C@@H]2O[C@](O)(C[C@@H](O)C[C@@H](O)[C@H](O)CC[C@@H](O)C[C@@H](O)CC(=O)O[C@H]1C)C[C@H](O)[C@H]2C(=O)O [AMPHOTERICIN B]",
    "testedSystem": "Trichophyton rubrum",
    "MBC (µg/mL)": 12.5
  },
  {
    "molecule": "COc1ccc(N2N=C3C(SC(c4cc(Cc5ccc(OC)c(C6SC7C(=NN(c8ccc(OC)cc8)C7c7ccc(F)cc7)N6c6ccc(Cl)cc6)c5)ccc4OC)N3c3ccc(Cl)cc3)C2c2ccc(F)cc2)cc1 (stereo unspecified)",
    "testedSystem": "Trichophyton rubrum",
    "MBC (µg/mL)": 50
  },
  {
    "molecule": "COc1ccc(Cc2ccc(OC)c(C3SC4C(=NN(c5ccc(Cl)cc5)C4c4ccc(F)cc4)N3c3ccc([N+](=O)[O-])cc3)c2)cc1C1SC2C(=NN(c3ccc(Cl)cc3)C2c2ccc(F)cc2)N1c1ccc([N+](=O)[O-])cc1 (stereo unspecified)",
    "testedSystem": "Trichophyton rubrum",
    "MBC (µg/mL)": 50
  },
  {
    "molecule": "COc1ccc(Cc2ccc(OC)c(C3SC4C(=NN(Cc5ccccc5)C4c4ccc(F)cc4)N3c3ccc(Cl)cc3)c2)cc1C1SC2C(=NN(Cc3ccccc3)C2c2ccc(F)cc2)N1c1ccc(Cl)cc1 (stereo unspecified)",
    "testedSystem": "Trichophyton rubrum",
    "MBC (µg/mL)": 12.5
  },
  {
    "molecule": "COc1ccc(Cc2ccc(OC)c(C3SC4C(=NN(c5ccccc5)C4c4ccc(F)cc4)N3c3ccc([N+](=O)[O-])cc3)c2)cc1C1SC2C(=NN(c3ccccc3)C2c2ccc(F)cc2)N1c1ccc([N+](=O)[O-])cc1 (stereo unspecified)",
    "testedSystem": "Trichophyton rubrum",
    "MBC (µg/mL)": 25
  }
]
